experimental_target: Transcription initiation factor TFIID subunit 1 (Homo sapiens)
Sequence (P21675 whole entry): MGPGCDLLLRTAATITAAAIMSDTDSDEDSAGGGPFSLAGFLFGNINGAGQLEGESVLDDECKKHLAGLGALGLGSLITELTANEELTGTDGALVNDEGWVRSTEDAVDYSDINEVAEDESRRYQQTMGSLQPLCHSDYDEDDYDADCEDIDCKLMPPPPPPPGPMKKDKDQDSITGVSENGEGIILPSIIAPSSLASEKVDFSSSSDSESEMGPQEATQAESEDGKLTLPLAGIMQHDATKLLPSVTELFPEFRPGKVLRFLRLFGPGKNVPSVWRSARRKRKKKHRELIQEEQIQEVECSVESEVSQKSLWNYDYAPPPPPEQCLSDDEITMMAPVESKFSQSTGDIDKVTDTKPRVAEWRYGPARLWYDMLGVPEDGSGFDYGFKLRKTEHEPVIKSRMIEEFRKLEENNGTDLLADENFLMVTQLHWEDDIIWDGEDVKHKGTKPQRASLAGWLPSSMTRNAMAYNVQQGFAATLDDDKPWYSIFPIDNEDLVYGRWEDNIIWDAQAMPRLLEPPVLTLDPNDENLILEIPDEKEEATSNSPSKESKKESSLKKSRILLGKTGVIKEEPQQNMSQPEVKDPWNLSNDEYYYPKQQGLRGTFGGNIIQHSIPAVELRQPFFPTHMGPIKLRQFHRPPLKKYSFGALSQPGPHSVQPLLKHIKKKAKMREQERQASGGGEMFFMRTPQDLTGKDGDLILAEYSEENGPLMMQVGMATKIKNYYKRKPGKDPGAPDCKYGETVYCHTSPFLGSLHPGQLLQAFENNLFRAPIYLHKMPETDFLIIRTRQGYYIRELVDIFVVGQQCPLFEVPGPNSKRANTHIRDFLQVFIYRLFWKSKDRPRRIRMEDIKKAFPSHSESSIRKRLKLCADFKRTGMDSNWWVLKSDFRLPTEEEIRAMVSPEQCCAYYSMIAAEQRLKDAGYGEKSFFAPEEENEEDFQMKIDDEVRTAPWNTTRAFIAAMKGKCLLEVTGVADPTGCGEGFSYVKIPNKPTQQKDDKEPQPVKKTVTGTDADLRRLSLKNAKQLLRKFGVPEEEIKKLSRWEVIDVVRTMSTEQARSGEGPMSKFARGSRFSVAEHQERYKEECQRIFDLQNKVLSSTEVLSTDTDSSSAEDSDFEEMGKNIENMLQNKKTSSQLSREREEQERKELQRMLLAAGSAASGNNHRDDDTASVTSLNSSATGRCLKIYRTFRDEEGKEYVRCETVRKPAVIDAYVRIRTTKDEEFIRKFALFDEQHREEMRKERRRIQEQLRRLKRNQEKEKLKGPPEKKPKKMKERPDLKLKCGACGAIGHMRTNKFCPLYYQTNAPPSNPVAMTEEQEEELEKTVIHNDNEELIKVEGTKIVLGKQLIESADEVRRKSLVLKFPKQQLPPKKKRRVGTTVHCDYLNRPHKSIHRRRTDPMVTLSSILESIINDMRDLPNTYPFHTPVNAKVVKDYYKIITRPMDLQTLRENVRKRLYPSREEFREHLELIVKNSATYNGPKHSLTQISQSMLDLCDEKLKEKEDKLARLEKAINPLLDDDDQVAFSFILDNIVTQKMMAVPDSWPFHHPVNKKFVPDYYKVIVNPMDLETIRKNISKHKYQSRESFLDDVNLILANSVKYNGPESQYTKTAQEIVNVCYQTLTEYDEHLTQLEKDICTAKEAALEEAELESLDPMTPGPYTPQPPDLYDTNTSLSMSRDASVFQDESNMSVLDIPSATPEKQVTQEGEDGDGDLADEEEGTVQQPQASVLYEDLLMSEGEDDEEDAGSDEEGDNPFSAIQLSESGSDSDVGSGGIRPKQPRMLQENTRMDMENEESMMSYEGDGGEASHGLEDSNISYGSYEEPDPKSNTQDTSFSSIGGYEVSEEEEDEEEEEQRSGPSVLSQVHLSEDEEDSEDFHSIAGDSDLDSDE
assay_explanation: Inhibition of recombinant His-tagged TAF1 bromodomain 1 (unknown origin) after 10 mins by TR-FRET assay
Please respond with reported pIC50 for every item in the list.
# log scale: pIC50 equals minus log10 of the concentration in mol/L

pIC50 reported for this compound C=CCCn1cc(-c2cccc(C(=O)N(C)C3CCCCC3)c2)c2cc[nH]c2c1=O : 4.89

Just so you know, measured pIC50 for C=CCCn1cc(-c2cnc(OCC)c(C(=O)N3CCOCC3)c2)c2cc[nH]c2c1=O came out at 5.28

For C=CCCn1cc(-c2cnc(OC)c(C(=O)N3CCOCC3)c2)c2cc[nH]c2c1=O the compound record lists pIC50 as 5.16

Entry under test: C=CCCn1cc(-c2cccc(C(=O)N3CCN(CCO)CC3)c2)c2cc[nH]c2c1=O . Its pIC50 was 4.85
